- Test system: MOLT-4 leukemia
- assay-comment: NCI-60 one-dose screen, 48 h (100 = growth as untreated, 0 = no growth, -100 = all killed)
- test-parameters: 10 µM unless noted
Compounds without any hit were thinned out: in the full panel of roughly 83,000, 20% have a hit.
# Yes = growth below 50% (exclusive); No = growth at/above 50%

A selection of reference data follows.
molecule: O=CNc1cc(Cl)cc(Cl)c1
assigned-label: No

molecule: COc1ccc(C(O)c2cc3c(N)c(C(=O)Nc4ccc(Cl)cc4)sc3nc2C)cc1 (stereo not given)
assigned-label: Yes

molecule: CCNNC(=O)[C@@H]1[C@H](c2cc(OC)c(OC)c(OC)c2)c2cc3c(cc2[C@H](O)[C@H]1CO)OCO3
assigned-label: Yes

molecule: COc1cc(-c2cc(=O)oc3cc(O)ccc23)cc(OC)c1OC
assigned-label: No

molecule: COc1ccc(-c2nc(N=Nc3c(O)[nH]c4ccccc34)nc(N3CCOCC3)c2C#N)cc1
assigned-label: No

# next molecule below
Request: Would you kindly verify if growth of Clc1ccc(C2CC(c3cccc(Nc4ccncc4)c3)=NN2c2ccc(Cl)cc2)cc1 (stereo not given) is strictly less than 50%?
Response: Yes
